B1: WDR88 (parent)
chain: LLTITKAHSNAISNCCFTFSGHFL

variants of: B1; assay: protein stability index of a GFP-peptide fusion (GPS, HEK-293T) (PSI 1-6); higher = more stable; settings: c terminus: a fixed tail appended;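 also: lentivirally expressed fusions sorted by FACS into six bins by GFP to DsRed ratio, PSI derived from sequencing read proportions per bin multiplied by bin number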
For each record, write down the corresponding protein stability index.
Answers are plain numbers.

Solved entries (count: 6):
sequenceText | protein stability index
LLTITKAHSNAISNCCFTFFGHFL [S20F] | 2.6
LLTITKAHSNAISNKCFTFSGHFL [C15K] | 2.11
LLTITKAHSNAISNCFFTFSGHFL [C16F] | 3.35
LLTITKAHSNAISNCCFTFYGHFL [S20Y] | 2.36
LLTITKAHSNAISNCCQTFSGHFL [F17Q] | 2.58
LLTITKAHSNAISNCMFTFSGHFL [C16M] | 3.28

Please state, for each entry, its recorded protein stability index.
1. LLTIHKAHSNAISNCCFTFSGHFL [T5H]
2. LLTIYKAHSNAISNCCFTFSGHFL [T5Y]

[2.9, 3.34]

Please state, for each entry, its recorded protein stability index.
1. LLQITKAHSNAISNCCFTFSGHFL [T3Q]
2. LLTITFAHSNAISNCCFTFSGHFL [K6F]
3. LHTITKAHSNAISNCCFTFSGHFL [L2H]
4. LLTITKAHSNAISNCCFTFSTHFL [G21T]

1. 3.3
2. 3.35
3. 2.28
4. 3.34

Please state, for each entry, its recorded protein stability index.
1. LLTITKAHSNAISNCCFTFSGHFP [L24P]
2. LLTITKAHSNAISNCGFTFSGHFL [C16G]
3. LLTITKAPSNAISNCCFTFSGHFL [H8P]
4. LLTITKAHSNAISNQCFTFSGHFL [C15Q]
5. LLFITKAHSNAISNCCFTFSGHFL [T3F]
6. LLTITKQHSNAISNCCFTFSGHFL [A7Q]
7. LLTITKAHYNAISNCCFTFSGHFL [S9Y]

[2.46, 2.75, 2.35, 3.52, 3.14, 3.22, 3.69]

Please state, for each entry, its recorded protein stability index.
1. LLTITKAHSKAISNCCFTFSGHFL [N10K]
2. LLTITKAHSNAISNCCFTFSGLFL [H22L]
3. LLTITKAHSNAISNCCFTFSEHFL [G21E]

1. 2.12
2. 3.61
3. 2.6
